# Tested on: COLO 205 colon
# experiment notes: NCI-60 one-dose screen, 48 h (100 = growth as untreated, 0 = no growth, -100 = all killed)
# particulars: 10 µM unless noted
This is part of a sample that, as a whole, favours compounds with a hit. Of some 83,000 tested, about 20% had one in any assay.
Overview of reported growth across a group of compounds:
result type: growth (%)

1) Cc1oc2c(Cc3ccc(NC(=O)c4ccc(Cl)cc4)cc3)ncnc2c1C(=O)NO | 107
2) CCOC(=O)c1cc2c(n1Cc1cc(OC)cc(OC)c1Br)-c1nc(NC(C)=O)sc1CCC2 | 82.2
3) Nc1nc(N)c2c(n1)NC(c1cccc(Nc3ccnc4cc(C(F)(F)F)ccc34)c1)CC(c1ccc(F)cc1)=N2 (stereo not drawn) | 29.1
4) COc1cc(OC)cc(-c2ccc(-c3ccc(C(=N)N)cn3)s2)c1 | 49.4
5) C=C1CC[C@@H]2[C@](C)(COC(C)=O)[C@H](OC(C)=O)CC[C@@]2(C)[C@@H]1CC(Nc1ccc(S(=O)(=O)Nc2nccs2)cc1)C1=CCOC1=O (stereo partly drawn) | -24.6
6) N=C(N)c1ccc(-c2ccc(-c3ccc(F)cc3)s2)nc1 | -46.7
7) CCNC(=O)Nc1ncccc1OCc1ccc(F)cc1 | 115
8) CCCCCO/N=C\c1c2c(O)c3c(O)c(C)c4c(c3c1O)C(=O)C(C)(O/C=C\C(OC)C(C)C(OC(C)=O)C(C)C(O)C(C)C(O)C(C)/C=C\C=C(\C)C(=O)N2)O4 (stereo not drawn) | 2.86

====

# Tested on: NCI-H322M lung
# experiment notes: NCI-60 one-dose screen, 48 h
# particulars: 10 µM unless noted
About 83,000 compounds went through this panel and 20% of them were active in at least one assay; those are over-represented in the sample as a whole. The source made the active and inactive calls. Rule for the calls: active = growth percent below 10; inactive = the rest.
Outcome codes: active, inactive

1) CCN(c1cc(-c2ccc(CN3CCC(/C=C/S(=O)(=O)c4ccccc4)CC3)cc2)cc(C(=O)NCc2c(C)cc(C)[nH]c2=O)c1C)C1CCOCC1 | inactive
2) COc1ccc(/C=C/C(=O)c2cc3c(N)c(C(=O)Nc4ccccc4)sc3nc2C)cc1 | inactive
3) Cc1cc2nc(C(Cl)Cl)nc(-c3ccc(Cl)cc3)n2n1 | active
4) Nc1c(C(=O)Nc2ccncc2)sc2nc3c(cc12)CCCCCCCC3 | active
5) CCOC(=O)c1cc2c(n1Cc1cc(OC)cc(OC)c1Br)-c1nc(NC(C)=O)sc1CCC2 | inactive
6) O=C(CN1C(=O)S/C(=C\C(Cl)=C\c2ccccc2)C1=O)NC1C=CS(=O)(=O)C1 (stereo not given) | inactive
7) CN1Cn2c(ccc2C(F)(F)F)C(=O)CS1(=O)=O | inactive
8) ON=C1CCCCCCCC1 | inactive
9) c1ccc(-c2cc(-c3cc(-c4ccccc4)on3)no2)cc1 | inactive
10) OCCN1CCN(CC/C=C2\c3ccccc3Sc3ccc(Cl)cc32)CC1 | inactive

====

# System: TK-10 renal
# experiment notes: NCI-60 one-dose screen, 48 h
# particulars: 10 µM unless noted
Compounds without any hit were thinned out: in the full panel of roughly 83,000, 20% have a hit. Activity calls are given as the source filed them. How the source made its calls: active means growth percent below 10; inactive means the rest.
Labels: true (1) for active, false (0) for inactive

1) Cc1ccc(/C=C(\C#N)c2cc3ccccc3[nH]2)cc1 | false (0)
2) CCCNNC(=O)/C=C/c1ccc(CNCCc2c(C)[nH]c3ccccc23)cc1 | true (1)
3) O=C(/C=C/c1ccc(F)cc1)Nc1ncc(Cc2ccc(F)cc2)s1 | false (0)
4) Cc1ccc(C(=O)Nc2ccc(CN3CCN(C)CC3)c(C(F)(F)F)c2)cc1C#Cc1cnc(N)cc1C#N | false (0)
5) CCCCC1=C(Br)C(=O)c2nc(C)ccc2C1=O | false (0)
6) CC[C@@H]1NC(=O)[C@H]([C@H](O)[C@H](C)C/C=C/c2ccc(CN3C(=O)C(C)=C(C)C3=O)cc2)N(C)C(=O)[C@H](C(C)C)N(C)C(=O)[C@H](CC(C)C)N(C)C(=O)[C@H](CC(C)C)N(C)C(=O)[C@@H](C)NC(=O)[C@H](C)NC(=O)[C@H](CC(C)C)N(C)C(=O)[C@H](C(C)C)NC(=O)[C@H](CC(C)C)N(C)C(=O)CN(C)C1=O | false (0)
7) COc1ccc(C/C(C)=C(/c2ccc(OCCN3CCCC3)cc2)c2ccc(OC(=O)NCc3ccccc3)cc2)cc1 | false (0)

====

# Tested on: SN12C renal
# experiment notes: NCI-60 one-dose screen, 48 h
# particulars: 10 µM unless noted
This is part of a sample that, as a whole, favours compounds with a hit. Of some 83,000 tested, about 20% had one in any assay. Calls of active or inactive are those of the source. The calls were made as follows: active = growth percent below 10; inactive = the rest.
Labels: YES (active), NO (inactive)

1. O=C(NNc1ccccc1)C1CCCN1 (stereo not given) | NO
2. Cc1c(O)c(O)cc2c3c(oc12)CC(c1ccc2c(c1)OCO2)CC3=O (stereo not given) | NO
3. CC[C@]1(O)CC2CN(CCc3c([nH]c4ccccc34)C(C(=O)OC)(c3cc4c(cc3OC)N(C=O)[C@H]3[C@@](O)(C(=O)OC)[C@H](OC(C)=O)[C@]5(CC)[C@@H]6C[C@@H]6CN6CC[C@]43[C@@H]65)C2)C1 (stereo not given in full) | NO
4. CN(C)CCCn1c2nc(=O)[nH]c(=O)c-2nc2cc(Cl)c(Cl)cc21 | NO
5. OCCN1CCN(c2cc(-c3cccc(OC(F)(F)F)c3)nc3ccc(N4CCCC4)cc23)CC1 | NO
6. COc1cc(NS(=O)(=O)C(C)C)cc(-c2cc(-c3ccc(N4CCNCC4)cc3)cnc2N)c1 | NO
7. O=C(NNc1ccccc1)c1ncc[nH]1 | NO
8. COc1ccc(/C=N\Nc2nc(SCC(C)C)nc(-c3ccc(OC)cc3)c2C#N)cc1 | YES
9. CCCc1cc(C(N)=S)ccn1 | NO
10. Nc1ccc(-c2ccc(N)c(Br)c2)cc1Br | NO

====

Readings of growth for the listed compounds
# Test system: KM12 colon
# experiment notes: NCI-60 one-dose screen, 48 h (100 = growth as untreated, 0 = no growth, -100 = all killed)
# particulars: 10 µM unless noted
About 83,000 compounds went through this panel and 20% of them were active in at least one assay; those are over-represented in the sample as a whole.
result type: growth (%)

1) Nc1ccc(-c2nc3ccc4[nH]ncc4c3c3c2CCCC3)cc1F | 12.3
2) c1cc(NCCCCN2CCOCC2)c2ccc3c(ccc4c(NCCN5CCOCC5)ccnc43)c2n1 | 92.1
3) N#Cc1c(-c2cccc(F)c2)cc(-c2cccnc2)[nH]c1=O | 103
4) OB(O)c1ccsc1-c1nc2ccc3[nH]ncc3c2c2c1CCCC2 | 38.1
5) CNC(=O)c1cc(Oc2ccc3nc(NC(=O)Nc4ccc(C(F)(F)F)cc4)sc3c2)ccn1 | 65

====

# Tested on: SF-295 CNS
# experiment notes: NCI-60 one-dose screen, 48 h (100 = growth as untreated, 0 = no growth, -100 = all killed)
# particulars: 10 µM unless noted
Compounds without any hit were thinned out: in the full panel of roughly 83,000, 20% have a hit.
I'd appreciate it if you marked entries condition met when growth is lower than 20% and condition not met when it is not.

1. COc1ccc(C(c2cc(OC)c(OC)c(OC)c2)n2ccnc2)cc1O (stereo not given) | condition met
2. Cc1ccc(NC(=O)c2sc3nc(C)c(C(=O)c4ccccc4)cc3c2N)cc1 | condition not met
3. Cc1[nH]c(C(=O)Nc2nc3ccc(NC(=O)CCN)cc3s2)c(Cl)c1Cl | condition not met
4. COc1ccc(Oc2nc(Nc3ccc(N4CCOCC4)cc3)ncc2NC(=O)c2cccc(C(F)(F)F)c2)cc1 | condition not met
5. COc1ccc(-c2c[nH]c(C(=O)O)c2-c2cc(OC)c(OC)c(OC)c2)cc1 | condition not met

====

The compounds listed here are annotated with their growth.
# System: SNB-19 CNS
# experiment notes: NCI-60 one-dose screen, 48 h (100 = growth as untreated, 0 = no growth, -100 = all killed)
# particulars: 10 µM unless noted
About 83,000 compounds went through this panel and 20% of them were active in at least one assay; those are over-represented in the sample as a whole.
result type: growth (%)

1. N=c1c2c(-c3ccccc3)c(-c3ccccc3)oc2ncn1NC(=O)c1cccnc1 | 96.4
2. COc1ccc(CCNC(=O)COc2cc3c(Nc4ccc(F)c(Cl)c4)ncnc3cc2OC)cc1OC | 84.2
3. CC(Sc1ccccc1)C(=O)O (stereo unspecified) | 94.5
4. COC1/C=C/OC2(C)Oc3c(C)c(O)c4c(O)c(c(C=NOC(c5ccccc5)c5ccccc5)c(O)c4c3C2=O)NC(=O)/C(C)=C/C=C/C(C)C(O)C(C)C(O)C(C)C(OC(C)=O)C1C (stereo unspecified) | 30.8
5. Nc1nc(N)c2c(n1)NC(c1ccc(Cl)cc1)CC(c1cccc(Nc3ccncc3)c1)=N2 (stereo unspecified) | 61.8
6. CN1Cn2c(ccc2C(F)(F)F)C(=O)CS1(=O)=O | 105
